- Tested on: A549/ATCC NSCLC
- Assay Protocol: NCI-60 one-dose screen, 48 h
- Run Parameters: 10 µM unless noted
The panel holds about 83,000 compounds, 20% with a hit somewhere; the sample as a whole holds those more often. Active and inactive are the calls of the source. Rule for the calls: active = growth percent below 10; inactive = the rest.
Outcomes: true (active), false (inactive)

[
  {
    "Compound": "S=c1nc(-c2ccccc2)oc(=NC2CCCCC2)n1C1CCCCC1",
    "Label": "false"
  },
  {
    "Compound": "NC1=C(c2nn[nH]n2)C(c2ccccc2Cl)c2ccc3ccccc3c2O1 (centres undefined)",
    "Label": "false"
  },
  {
    "Compound": "C=C1CC[C@H](C(C)C)[C@@H]2[C@H]1[C@H]1CC(=C)[C@@H](O)CC[C@@](C)(O)[C@@H]2O1",
    "Label": "false"
  },
  {
    "Compound": "O=C(Nc1nc2ccc(F)cc2s1)c1cccnc1Nc1ccc(Cl)cc1Cl",
    "Label": "false"
  },
  {
    "Compound": "NCCNc1nc2ccccc2c2c(=O)c3cccc(F)c3sc12",
    "Label": "false"
  },
  {
    "Compound": "O=CN1N=C(c2ccc(Nc3ccnc4cc(Cl)ccc34)cc2)CC1c1ccccc1 (centres undefined)",
    "Label": "false"
  },
  {
    "Compound": "O=C(N/N=C/[C@H](O)[C@H](O)[C@H](O)CO)c1ccc(NC(=O)c2cccnc2)cc1",
    "Label": "false"
  },
  {
    "Compound": "COc1ccc2[nH]c(-c3ccccc3)c(/C=C(\\C#N)S(=O)(=O)c3ccccc3)c2c1",
    "Label": "false"
  },
  {
    "Compound": "COc1ccc(-c2conc2-c2ccccc2)cc1",
    "Label": "false"
  },
  {
    "Compound": "Oc1ccc(CCl)c2cccnc12",
    "Label": "false"
  },
  {
    "Compound": "CCOC(=O)c1cnn2c3ccccc3n(S(=O)(=O)c3ccc(OC)cc3)c12",
    "Label": "false"
  },
  {
    "Compound": "O=C(CCN1C(=O)/C(=C/c2ccc(O)cc2)SC1=S)Nc1ccccc1",
    "Label": "false"
  },
  {
    "Compound": "O=C(Nc1ccc(I)cc1F)c1cc(I)ccc1O",
    "Label": "false"
  },
  {
    "Compound": "CC(=O)c1ccc(Nc2nc(C(C)=O)c(C)s2)cc1",
    "Label": "false"
  },
  {
    "Compound": "Cc1ccc2c(-c3cc(-c4ccccc4)nc(N)c3C#N)cc(=O)oc2c1",
    "Label": "false"
  },
  {
    "Compound": "CC1=NN(c2ccc(S(=O)(=O)O)cc2)C(=O)C1N=Nc1ccc(-c2ccc(N=Nc3ccc(OS(=O)(=O)c4ccc(C)cc4)cc3)c(S(=O)(=O)O)c2)cc1 (centres undefined)",
    "Label": "false"
  },
  {
    "Compound": "CC(=O)Oc1ccccc1C(=O)N=C1[Se]CCCN1C(=O)c1ccccc1OC(C)=O",
    "Label": "false"
  },
  {
    "Compound": "CCc1ccccc1-n1c(N)c(C#N)c(-c2ccc(Cl)cc2)c(C#N)c1=O",
    "Label": "false"
  },
  {
    "Compound": "Cn1cc(-c2ccc3cc(-c4ccc(CC(=O)Nc5cc(C(C)(C)C)nn5C)cc4)cnc3c2)cn1",
    "Label": "false"
  },
  {
    "Compound": "CCN(CC)S(=O)(=O)c1ccc(NC(=O)CSc2nnc(C)n2-c2ccccc2)cc1",
    "Label": "false"
  },
  {
    "Compound": "Oc1c(I)cc(I)cc1CNCCCN(Cc1ccccn1)Cc1ccccn1",
    "Label": "true"
  },
  {
    "Compound": "CC(=O)CC[C@H]1C(=O)N[C@@H](C(C)C)C(=O)N[C@@H](Cc2cc(O)cc(F)c2)C(=O)N2CCC[C@H](N2)C(=O)O[C@H](/C(C)=C/C=C/C(=O)OC(C)(C)C)C/C=C/C=C/[C@H](O)[C@H](C)[C@H]1O",
    "Label": "false"
  },
  {
    "Compound": "Cn1cc(C(=O)c2nc(-c3cn(C)c4ccc(F)cc34)no2)c2cc(F)ccc21",
    "Label": "false"
  },
  {
    "Compound": "CN1CCN(c2ccc(-c3cc4c(Nc5ccc(F)c(Cl)c5)ncnn4c3)cn2)CC1",
    "Label": "false"
  },
  {
    "Compound": "O=C(CCOCCNC(=O)COc1ccc2c(c1)OCC(c1ccc(F)cc1)C2=O)NCCCC(O)(P(=O)(O)O)P(=O)(O)O (centres undefined)",
    "Label": "false"
  },
  {
    "Compound": "CC(C)OC(=O)Nc1ccc(-c2nc(-c3cccc(OCCN4CCOCC4)c3)c(-c3ccnc(Br)c3)[nH]2)cc1",
    "Label": "false"
  },
  {
    "Compound": "COc1cc(C2CC(c3ccc(SC)cc3)=NN2C(C)=O)cc(OC)c1OC (centres undefined)",
    "Label": "false"
  },
  {
    "Compound": "c1cc(NCCc2ccncc2)nc(-n2cnc3ccccc32)c1",
    "Label": "false"
  },
  {
    "Compound": "CC1(C)C2CC1C1(/C=N/NC(N)=S)C(C2)C(C#N)(C#N)C1(C#N)C#N (centres undefined)",
    "Label": "false"
  },
  {
    "Compound": "Nc1nc(Cl)cc(=O)n1Cc1ccccc1",
    "Label": "false"
  },
  {
    "Compound": "CNC(=O)c1cc(-n2ccc3cc(NC(=O)c4ccc(N5CCOCC5)c(C(F)(F)F)c4)ccc32)ccn1",
    "Label": "false"
  },
  {
    "Compound": "O=C(N/N=C/c1ccc(Cl)cc1)c1ccc(C(F)(F)F)nc1Nc1cccc(C(F)(F)F)c1",
    "Label": "false"
  },
  {
    "Compound": "COc1cc2cc(Oc3ccc(NC(=O)Nc4ccc(Cl)c(Cl)c4)cc3)c(C)nc2cc1OCCN1CCOCC1",
    "Label": "false"
  },
  {
    "Compound": "COc1cc(C(=O)c2cc(C)c3[nH]c4ccc(C)cc4c3c2C)cc(OC)c1OC",
    "Label": "false"
  },
  {
    "Compound": "COc1ccc(-c2cnc3ccccc3n2)cc1",
    "Label": "false"
  },
  {
    "Compound": "CCCCCCN(CCCCCC)c1ccc(/C=C2/SC(=O)NC2=O)c(C)c1",
    "Label": "false"
  },
  {
    "Compound": "CCOC(=O)C1=C(N)Oc2c(sc3c(C)cccc23)C1c1ccc(F)cc1 (centres undefined)",
    "Label": "false"
  },
  {
    "Compound": "COc1ccn2c(C(C)=O)cc(C(=O)c3ccc4c(c3)Sc3ccccc3N4)c2c1",
    "Label": "false"
  },
  {
    "Compound": "CCc1ccc(Oc2c(-c3ccc(OCc4ccc(Cl)cc4)cc3O)n[nH]c2C(F)(F)F)cc1",
    "Label": "false"
  }
]

###

- System: SK-MEL-5 melanoma
- Assay Protocol: NCI-60 one-dose screen, 48 h
- Run Parameters: 10 µM unless noted
- Protocol: Growth inhibition of the SK-MEL-5 human tumor cell line is measured as a screen for anti-cancer activity. Cells are grown in 96 well plates and exposed to the test compound for 48 hours. Compounds are tested at a single concentration, which is 10^-5 M for most compounds. The reported endpoint is percent growth (GI% or GIPRCNT), where numbers from 0 - 100% represent growth inhibition, and numbers from -100% - 0 represent cell death. For example, a value of 40 represents 60% growth inhibition. […]
Compounds without any hit were thinned out: in the full panel of roughly 83,000, 20% have a hit. The source made the active and inactive calls. Rule for the calls: active = growth percent below 10; inactive = the rest.
Outcomes: active, inactive

[
  {
    "Compound": "Cc1cccc2c3c(sc12)C(c1ccc(F)cc1)C(C#N)=C(N)O3 (configuration not stated)",
    "Label": "active"
  },
  {
    "Compound": "Cc1ccc(C(C)C)cc1C(=O)C[n+]1ccccc1",
    "Label": "inactive"
  },
  {
    "Compound": "O=CN1N=C(c2ccc(Nc3ccnc4cc(Cl)ccc34)cc2)CC1c1ccccc1 (configuration not stated)",
    "Label": "active"
  },
  {
    "Compound": "CCN1C(=O)N(CC)C2Nn3c(s/c(=C4\\C(=O)Nc5ccccc54)c3=O)=NC21 (configuration not stated)",
    "Label": "inactive"
  },
  {
    "Compound": "COc1ccc2c(c1)c(-c1nn3cc(-c4cccs4)nc3s1)cn2C",
    "Label": "inactive"
  },
  {
    "Compound": "CC1=C(C)C(=O)C(Nc2cccc(C(=O)OC(C)(C)C)c2)=C(Br)C1=O",
    "Label": "inactive"
  },
  {
    "Compound": "c1ccc(-c2nc3nonc3nc2-c2ccccc2)cc1",
    "Label": "inactive"
  },
  {
    "Compound": "COc1ccc2nc(NCCCNCCO)c3sc4ccc(F)cc4c(=O)c3c2c1",
    "Label": "inactive"
  },
  {
    "Compound": "COc1cc(C(=O)/C=C/c2c(Cl)nc3sccn23)cc(OC)c1OC",
    "Label": "inactive"
  },
  {
    "Compound": "Cc1c(C(=O)N[C@@H](Cc2ccccc2)C(=O)C(=O)NCc2ccc(F)cc2)[nH]c2ccccc2c1=O",
    "Label": "inactive"
  },
  {
    "Compound": "Cc1ccc(-c2cnc3sc(C(=O)NCCc4ccccc4)c(C)n23)cc1",
    "Label": "inactive"
  },
  {
    "Compound": "O=C(N/N=C/c1ccc(Cl)cc1)c1ccc(C(F)(F)F)nc1Nc1cccc(C(F)(F)F)c1",
    "Label": "inactive"
  },
  {
    "Compound": "Cc1c(C(=O)NCCCc2ccccc2)sc2ncc(-c3ccc(Br)cc3)n12",
    "Label": "inactive"
  },
  {
    "Compound": "Cc1ccc(/C=N\\NC(=O)c2[nH]c3ccc(F)cc3c2-c2ccccc2)cc1",
    "Label": "active"
  },
  {
    "Compound": "COc1cc2cc(Oc3ccc(NC(=O)Nc4ccc(Cl)c(C(F)(F)F)c4)cc3)c(C)nc2cc1OCCN1CCOCC1",
    "Label": "active"
  },
  {
    "Compound": "Cc1c(C(=O)/C=C/Nc2c(Cl)cc(S(N)(=O)=O)cc2Cl)sc2nc3ccccc3n12",
    "Label": "inactive"
  },
  {
    "Compound": "CC(C)c1cc(C(C)C)c(S(=O)(=O)Oc2ccc(NC(=O)c3ccc(Cl)cc3)cc2)c(C(C)C)c1",
    "Label": "inactive"
  },
  {
    "Compound": "COc1cc(CCC[P+](c2ccccc2)(c2ccccc2)c2ccccc2)c(OC)c(OC)c1OC",
    "Label": "inactive"
  },
  {
    "Compound": "O=C1CN(CCN2CC(=O)N(Cc3ccccc3)C(=O)C2)CC(=O)N1Cc1ccccc1",
    "Label": "inactive"
  },
  {
    "Compound": "Cc1ncc(C(=O)Nc2ccc(CN3CCN(C)CC3)c(C(F)(F)F)c2)cc1C#Cc1ccc(N)nc1",
    "Label": "active"
  },
  {
    "Compound": "Oc1ccc(Cl)cc1Cc1cc(Cl)cc(Cl)c1O",
    "Label": "active"
  },
  {
    "Compound": "CC(=O)CC[C@H]1C(=O)N[C@@H](C(C)C)C(=O)N[C@@H](Cc2cc(O)cc(F)c2)C(=O)N2CCC[C@H](N2)C(=O)O[C@H](/C(C)=C/C=C/C(=O)OC(C)(C)C)C/C=C/C=C/[C@H](O)[C@H](C)[C@H]1O",
    "Label": "inactive"
  },
  {
    "Compound": "COc1ccc2c(c1)/C(=C/c1sc(=S)n(Cc3ccco3)c1O)C=N2",
    "Label": "inactive"
  },
  {
    "Compound": "C[C@H]1[C@H]2[C@H]3CC[C@@H]4[C@@]5(C)CC[C@H](O)C(C)(C)[C@@H]5CC[C@@]4(C)[C@]3(C)CC[C@]23CO[C@]1(C)[C@@H](C(=O)/C=C\\c1cccnc1)C3",
    "Label": "inactive"
  },
  {
    "Compound": "Clc1ccc(C(/C=C/c2sc(Cl)nc2Cl)=N/Nc2cc(Cl)cc(Cl)c2)cc1",
    "Label": "inactive"
  },
  {
    "Compound": "COc1cccc(OC)c1C(=O)N[C@@H]1C(=O)N2[C@@H]1SC(C)(C)[C@@H]2C(=O)O",
    "Label": "inactive"
  },
  {
    "Compound": "Cc1cc(=O)oc2cc(OC(=O)N3CCN(C)CC3)ccc12",
    "Label": "inactive"
  },
  {
    "Compound": "CCC12CCC[N+]3([O-])CCC4(C(=Nc5ccccc54)C(O)(C(=O)OC)C1)C23 (configuration not stated)",
    "Label": "inactive"
  },
  {
    "Compound": "CC1=NN(c2ccc(S(=O)(=O)O)cc2)C(=O)C1N=Nc1ccc(-c2ccc(N=Nc3ccc(OS(=O)(=O)c4ccc(C)cc4)cc3)c(S(=O)(=O)O)c2)cc1 (configuration not stated)",
    "Label": "inactive"
  },
  {
    "Compound": "CN1CCN(Cc2ccc(NC(=O)c3ccc(C(C)(C)C)c(C#Cc4cnc5cccnn45)c3)cc2C(F)(F)F)CC1",
    "Label": "active"
  },
  {
    "Compound": "CC(=O)N1N=C(c2ccc(Nc3nc(Nc4ccc(F)cc4)nc(Nc4ccc(Cl)cc4)n3)cc2)CC1c1ccc(Cl)cc1 (configuration not stated)",
    "Label": "inactive"
  },
  {
    "Compound": "O=C1CSC(c2c(Cl)cccc2Cl)N1c1nc(Cl)cc(=O)[nH]1 (configuration not stated)",
    "Label": "inactive"
  },
  {
    "Compound": "CCOC(=O)C1=C(N)Oc2c(sc3c(CC)cccc23)C1c1ccc(F)cc1 (configuration not stated)",
    "Label": "inactive"
  },
  {
    "Compound": "C=CCNc1ccc2c3c(cccc13)C(=O)N(N1C(=O)c3cccc4cccc(c34)C1=O)C2=O",
    "Label": "inactive"
  },
  {
    "Compound": "COc1ccc2sc3c(NCCO)nc4ccccc4c3c(=O)c2c1",
    "Label": "inactive"
  },
  {
    "Compound": "CCOC(=O)Nc1ccc(C(=O)/C=C/c2ccccc2)cc1",
    "Label": "inactive"
  },
  {
    "Compound": "COc1ccc(/C=C(/C#N)n2nnc3cccc(F)c32)cc1",
    "Label": "active"
  }
]

The measurements presented in this section are drawn from PubChem BioAssay (NCI).
